# Target under test: Sap5 (Candida albicans)
# Sequence (P43094 77-418): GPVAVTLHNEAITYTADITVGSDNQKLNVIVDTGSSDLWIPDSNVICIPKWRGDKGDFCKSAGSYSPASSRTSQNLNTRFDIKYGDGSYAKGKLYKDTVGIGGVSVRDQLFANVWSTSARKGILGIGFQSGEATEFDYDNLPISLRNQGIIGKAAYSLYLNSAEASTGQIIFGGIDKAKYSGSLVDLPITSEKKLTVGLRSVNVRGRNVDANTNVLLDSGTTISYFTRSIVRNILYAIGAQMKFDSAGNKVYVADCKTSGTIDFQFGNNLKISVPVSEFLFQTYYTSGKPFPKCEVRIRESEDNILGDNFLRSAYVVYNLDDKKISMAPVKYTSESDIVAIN
Non-standard residues stand in square brackets, D forms with d. Residues, ends and D or L forms follow the SMILES beside them. *: point of attachment. Phe(3-F) = N[C@@H](Cc1cccc(F)c1)C(=O)O; Sta = CC(C)C[C@H](N)[C@@H](O)CC(=O)O; Isovaleryl = CC(C)CC(=O)*; Nle = CCCC[C@H](N)C(=O)O
IC50 values by entry

Example entries begin here.
CC(C)CN(C[C@@H](O)[C@H](Cc1ccccc1)NC(=O)O[C@H]1CCOC1)S(=O)(=O)c1ccc(N)cc1 [Amprenavir, reference compound]; ~33000 nM
CC(C)CC(=O)N[C@H](C(=O)N[C@@H](CCCCN)C(=O)N[C@@H](CC(C)C)[C@@H](O)CC(=O)N[C@@H](C)C(=O)N[C@@H](CC(C)C)[C@@H](O)CC(=O)O)C(C)C [P2(Lys)-pepstatin, (N-Iva-Val)-Lys-Sta-Ala-Sta] (Isovaleryl-VK[Sta]A[Sta]-OH); ~20 nM
CC(C)CC(=O)N[C@@H](Cc1cccc(F)c1)C(=O)N[C@H](C(=O)N[C@@H](CC(C)C)[C@@H](O)CC(=O)N[C@@H](C)C(=O)N[C@@H](CC(C)C)[C@@H](O)CC(=O)O)C(C)C [P3(m-FPhe)-pepstatin, (N-Iva-mFPhe)-Val-Sta-Ala-Sta] (Isovaleryl-[Phe(3-F)]V[Sta]A[Sta]-OH); ~10 nM

Return reported IC50. Input molecule: CCCC[C@H](NC(=O)[C@@H](NC(=O)CC(C)C)C(C)C)C(=O)N[C@@H](CC(C)C)[C@@H](O)CC(=O)N[C@@H](C)C(=O)N[C@@H](CC(C)C)[C@@H](O)CC(=O)O [P2(Nle)-pepstatin, (N-Iva-Val)-N/e-Sta-Ala-Sta] (Isovaleryl-V[Nle][Sta]A[Sta]-OH)
10 nM

----------
# Target under test: UniProt P43094
pIC50: −log10 of the molar value. Non-standard residues stand in square brackets, D forms with d. Residues, ends and D or L forms follow the SMILES beside them. *: point of attachment. Phe(2-F) = N[C@@H](Cc1ccccc1F)C(=O)O; Sta = CC(C)C[C@H](N)[C@@H](O)CC(=O)O; Isovaleryl = CC(C)CC(=O)*; Nle = CCCC[C@H](N)C(=O)O
Parameter: pIC50

CC(C)CC(=O)N[C@H](C(=O)N[C@H](C(=O)N[C@@H](CC(C)C)[C@@H](O)CC(=O)N[C@@H](C)C(=O)N[C@@H](CC(C)C)[C@@H](O)CC(=O)O)C(C)C)C(C)C [Pepstatin A] (Isovaleryl-VV[Sta]A[Sta]-OH); 8.30
CCCC[C@H](NC(=O)[C@H](Cc1ccccc1)NC(=O)CC(C)C)C(=O)N[C@@H](CC(C)C)[C@@H](O)CC(=O)N[C@@H](CCCCN)C(=O)N[C@@H](CC(C)C)[C@@H](O)CC(=O)O [Compound K, (N-Iva-Phe)-Nle-Sta-Lys-Sta] (Isovaleryl-F[Nle][Sta]K[Sta]-OH); ~8.30
Cc1cccc(C)c1OCC(=O)N[C@@H](Cc1ccccc1)[C@@H](O)C[C@H](Cc1ccccc1)NC(=O)[C@H](C(C)C)N1CCCNC1=O [Lopinavir, reference compound]; < 3.51

# ---- query compound ----
Input CC(C)CC(=O)N[C@@H](Cc1ccccc1F)C(=O)N[C@H](C(=O)N[C@@H](CC(C)C)[C@@H](O)CC(=O)N[C@@H](C)C(=O)N[C@@H](CC(C)C)[C@@H](O)CC(=O)O)C(C)C [P3(o-FPhe)-pepstatin, (N-Iva-oFPhe)-Val-Sta-Ala-Sta] (Isovaleryl-[Phe(2-F)]V[Sta]A[Sta]-OH) , output reported pIC50.
~7.30

----------
# Target under test: Sap1 of Candida albicans (Candida albicans)
# Sequence (P0CY27 51-391): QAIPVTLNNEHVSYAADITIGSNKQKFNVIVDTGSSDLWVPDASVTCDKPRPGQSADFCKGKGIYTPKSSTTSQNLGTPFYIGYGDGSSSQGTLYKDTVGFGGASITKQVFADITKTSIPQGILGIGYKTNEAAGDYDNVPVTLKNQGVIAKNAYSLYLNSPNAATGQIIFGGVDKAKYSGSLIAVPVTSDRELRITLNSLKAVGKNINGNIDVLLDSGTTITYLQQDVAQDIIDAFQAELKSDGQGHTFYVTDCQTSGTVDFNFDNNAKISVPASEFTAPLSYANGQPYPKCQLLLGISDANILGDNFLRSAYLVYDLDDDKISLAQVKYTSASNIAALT
# Protocol notes: Inhibition of proteolytic activity of Sap1 (resorufin-marked casein, fluorescence)
# Format: biochemical
Non-standard residues stand in square brackets, D forms with d. Residues, ends and D or L forms follow the SMILES beside them. *: point of attachment. Phe(3-F) = N[C@@H](Cc1cccc(F)c1)C(=O)O; Sta = CC(C)C[C@H](N)[C@@H](O)CC(=O)O; Isovaleryl = CC(C)CC(=O)*
Parameter: pIC50
// pIC50: -log10(molar conc.)

Fill in reported pIC50 for this entry: CC(C)CC(=O)N[C@@H](Cc1cccc(F)c1)C(=O)N[C@H](C(=O)N[C@@H](CC(C)C)[C@@H](O)CC(=O)N[C@@H](C)C(=O)N[C@@H](CC(C)C)[C@@H](O)CC(=O)O)C(C)C [P3(m-FPhe)-pepstatin, (N-Iva-mFPhe)-Val-Sta-Ala-Sta] (Isovaleryl-[Phe(3-F)]V[Sta]A[Sta]-OH)
8.00

----------
Non-standard residues stand in square brackets, D forms with d. Residues, ends and D or L forms follow the SMILES beside them. *: point of attachment. Phe(4-Me) = Cc1ccc(C[C@H](N)C(=O)O)cc1; Sta = CC(C)C[C@H](N)[C@@H](O)CC(=O)O; Isovaleryl = CC(C)CC(=O)*; Nle = CCCC[C@H](N)C(=O)O
IC50 values recorded for Sap1 of Candida albicans (Candida albicans, UniProt P0CY27)

CCCC[C@H](NC(=O)[C@H](Cc1ccccc1)NC(=O)CC(C)C)C(=O)N[C@@H](CC(C)C)[C@@H](O)CC(=O)N[C@@H](CCCCN)C(=O)N[C@@H](CC(C)C)[C@@H](O)CC(=O)O [Compound K, (N-Iva-Phe)-Nle-Sta-Lys-Sta] (Isovaleryl-F[Nle][Sta]K[Sta]-OH); < 5 nM

Check the records and state IC50 for COc1ccc(C[C@H](NC(=O)CC(C)C)C(=O)N[C@H](C(=O)N[C@@H](CC(C)C)[C@@H](O)CC(=O)N[C@@H](C)C(=O)N[C@@H](CC(C)C)[C@@H](O)CC(=O)O)C(C)C)cc1 [P3(O—MeTyr)-pepstatin, (N-Iva-OMeTyr)-Val-Sta-Ala-Sta] (Isovaleryl-Y(Me)V[Sta]A[Sta]-OH)
> 500 nM

Identify IC50 associated with the molecule Cc1ccc(C[C@H](NC(=O)CC(C)C)C(=O)N[C@H](C(=O)N[C@@H](CC(C)C)[C@@H](O)CC(=O)N[C@@H](C)C(=O)N[C@@H](CC(C)C)[C@@H](O)CC(=O)O)C(C)C)cc1 [P3(MePhe)-pepstatin, (N-Iva-pMePhe)-Val-Sta-Ala-Sta] (Isovaleryl-[Phe(4-Me)]V[Sta]A[Sta]-OH)
~10 nM

----------
Non-standard residues stand in square brackets, D forms with d. Residues, ends and D or L forms follow the SMILES beside them. *: point of attachment. Abu(4,4,4-F3) = N[C@@H](CC(F)(F)F)C(=O)O; Sta = CC(C)C[C@H](N)[C@@H](O)CC(=O)O; Isovaleryl = CC(C)CC(=O)*; Nle = CCCC[C@H](N)C(=O)O
Sap1 of Candida albicans (Candida albicans) data, read-out IC50

CC(C)CC(=O)N[C@H](C(=O)N[C@@H](CC(F)(F)F)C(=O)N[C@@H](CC(C)C)[C@@H](O)CC(=O)N[C@@H](C)C(=O)N[C@@H](CC(C)C)[C@@H](O)CC(=O)O)C(C)C [P2(TfeGly)-pepstatin, (N-Iva-Val)-TfeGly-Sta-Ala-Sta] (Isovaleryl-V[Abu(4,4,4-F3)][Sta]A[Sta]-OH); ~50 nM

Please turn your attention to the following entry.
Output reported IC50 of the compound CCCC[C@H](NC(=O)[C@@H](NC(=O)CC(C)C)C(C)C)C(=O)N[C@@H](CC(C)C)[C@@H](O)CC(=O)N[C@@H](C)C(=O)N[C@@H](CC(C)C)[C@@H](O)CC(=O)O [P2(Nle)-pepstatin, (N-Iva-Val)-N/e-Sta-Ala-Sta] (Isovaleryl-V[Nle][Sta]A[Sta]-OH) on Sap1 of Candida albicans (Candida albicans).
~10 nM

----------
# Target under test: Sap6 of Candida albicans (Candida albicans)
# Sequence (Q5AC08 77-418): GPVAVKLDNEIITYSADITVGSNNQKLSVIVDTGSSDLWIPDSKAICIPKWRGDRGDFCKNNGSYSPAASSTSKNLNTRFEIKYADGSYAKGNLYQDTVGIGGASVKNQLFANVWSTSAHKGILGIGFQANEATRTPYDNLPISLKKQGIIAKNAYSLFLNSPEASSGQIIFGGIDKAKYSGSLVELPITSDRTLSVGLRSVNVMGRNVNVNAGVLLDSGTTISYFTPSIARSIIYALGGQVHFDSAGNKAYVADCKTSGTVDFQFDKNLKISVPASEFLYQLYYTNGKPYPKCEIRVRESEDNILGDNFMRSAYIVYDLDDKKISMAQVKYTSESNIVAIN
pIC50: −log10 of the molar value. Non-standard residues stand in square brackets, D forms with d. Residues, ends and D or L forms follow the SMILES beside them. *: point of attachment. Phe(4-Me) = Cc1ccc(C[C@H](N)C(=O)O)cc1; Sta = CC(C)C[C@H](N)[C@@H](O)CC(=O)O; Isovaleryl = CC(C)CC(=O)*
Parameter: pIC50

CC(C)CC(=O)N[C@H](C(=O)N[C@H](C(=O)N[C@@H](CC(C)C)[C@@H](O)CC(=O)N[C@@H](C)C(=O)N[C@@H](CC(C)C)[C@@H](O)CC(=O)O)C(C)C)C(C)C [Pepstatin A] (Isovaleryl-VV[Sta]A[Sta]-OH); ~8.15

Please indicate pIC50 recorded for Cc1ccc(C[C@H](NC(=O)CC(C)C)C(=O)N[C@H](C(=O)N[C@@H](CC(C)C)[C@@H](O)CC(=O)N[C@@H](C)C(=O)N[C@@H](CC(C)C)[C@@H](O)CC(=O)O)C(C)C)cc1 [P3(MePhe)-pepstatin, (N-Iva-pMePhe)-Val-Sta-Ala-Sta] (Isovaleryl-[Phe(4-Me)]V[Sta]A[Sta]-OH)
~7.70
